These measurements were taken from the supplement of paper PMC10307832.

Tested on: ABC-1
Assay method text: relative viability (nuclei count vs DMSO), 5 days (fraction); higher = more cells survive
Condition notes: first compound 0.3162 µM
Exercise: state measured relative viability for each of the compounds provided.
Numbers only.

Worked examples follow.
NC(=O)Nc1cc(-c2cccc(F)c2)sc1C(=O)N[C@H]1CCCNC1 [AZD7762] + CCNC(=O)c1noc(-c2cc(C(C)C)c(O)cc2O)c1-c1ccc(CN2CCOCC2)cc1 [Luminespib] (partner 0.01 µM)	0.374
NC(=O)Nc1cc(-c2cccc(F)c2)sc1C(=O)N[C@H]1CCCNC1 [AZD7762] + CC(=O)c1c(C)c2cnc(Nc3ccc(N4CCNCC4)cn3)nc2n(C2CCCC2)c1=O [Palbociclib] (partner 0.5 µM)	0.948
NC(=O)Nc1cc(-c2cccc(F)c2)sc1C(=O)N[C@H]1CCCNC1 [AZD7762] + C[C@]1(O)C[C@@H](c2nc(-c3ccc4ccc(-c5ccccc5)nc4c3)c3c(N)nccn32)C1 [Linsitinib] (partner 1 µM)	0.409

Here's the next entry for you.
Which relative viability reading was recorded for the compound NC(=O)Nc1cc(-c2cccc(F)c2)sc1C(=O)N[C@H]1CCCNC1 [AZD7762] + O=C(CCCCCCC(=O)Nc1ccccc1)NO [Vorinostat] (partner 1 µM) ?
0.976

---

System: HCC-44
Assay method text: relative viability (nuclei count vs DMSO), 5 days (fraction); higher = more cells survive
Condition notes: first compound 2.53 µM
Reported metric: relative viability

Solved cases below.
C=C1C(=O)O[C@@H](CCCCCCCC)[C@@H]1C(=O)O [C-75] + Cc1cc(Nc2cc(N3CCN(C)CC3)nc(Sc3ccc(NC(=O)C4CC4)cc3)n2)n[nH]1 [Tozasertib] (partner 0.1 µM)	0.878
Oc1nc(-c2ccc(C(F)(F)F)cc2)nc2c1CSCC2 [XAV939] + CCNC(=O)c1noc(-c2cc(C(C)C)c(O)cc2O)c1-c1ccc(CN2CCOCC2)cc1 [Luminespib] (partner 0.01 µM)	0.974
Oc1nc(-c2ccc(C(F)(F)F)cc2)nc2c1CSCC2 [XAV939] + O=C(c1cc(Cc2n[nH]c(=O)c3ccccc23)ccc1F)N1CCN(C(=O)C2CC2)CC1 [Olaparib] (partner 8 µM)	0.866

I would be grateful if you could provide relative viability for each of the following entries.
1. Oc1nc(-c2ccc(C(F)(F)F)cc2)nc2c1CSCC2 [XAV939] + O=C(CCCCCCC(=O)Nc1ccccc1)NO [Vorinostat] (partner 1 µM)
2. C=C1C(=O)O[C@@H](CCCCCCCC)[C@@H]1C(=O)O [C-75] + CC(=O)c1c(C)c2cnc(Nc3ccc(N4CCNCC4)cn3)nc2n(C2CCCC2)c1=O [Palbociclib] (partner 0.5 µM)

1. 1.04
2. 0.956

---

Test system: NCI-H650
Assay method text: relative viability (nuclei count vs DMSO), 5 days (fraction); higher = more cells survive
Condition notes: first compound 0.08 µM
For each entry below, report its relative viability value.
One number for each entry.

Use the examples below as a reference point.
Oc1nc(-c2ccc(C(F)(F)F)cc2)nc2c1CSCC2 [XAV939] + O=C(CCCCCCC(=O)Nc1ccccc1)NO [Vorinostat] (partner 1 µM)	0.461
C=C1C(=O)O[C@@H](CCCCCCCC)[C@@H]1C(=O)O [C-75] + O=C(c1cc(Cc2n[nH]c(=O)c3ccccc23)ccc1F)N1CCN(C(=O)C2CC2)CC1 [Olaparib] (partner 8 µM)	0.397
C=C1C(=O)O[C@@H](CCCCCCCC)[C@@H]1C(=O)O [C-75] + COc1cccc2cc(-c3nc([C@H]4CC[C@H](C(=O)O)CC4)n4ncnc(N)c34)[nH]c12 [OSI-027] (partner 0.5 µM)	0.611

List relative viability for every entry below, keeping the order given.
1. C=C1C(=O)O[C@@H](CCCCCCCC)[C@@H]1C(=O)O [C-75] + C[C@@H](Oc1cc(-c2cnn(C3CCNCC3)c2)cnc1N)c1c(Cl)ccc(F)c1Cl [Crizotinib] (partner 1 µM)
2. C=C1C(=O)O[C@@H](CCCCCCCC)[C@@H]1C(=O)O [C-75] + CC(=O)Nc1cccc(-n2c(=O)n(C3CC3)c(=O)c3c(Nc4ccc(I)cc4F)n(C)c(=O)c(C)c32)c1 [Trametinib] (partner 0.02 µM)
3. Oc1nc(-c2ccc(C(F)(F)F)cc2)nc2c1CSCC2 [XAV939] + COc1cc2c(Oc3ccc(NC(=O)C4(C(=O)Nc5ccc(F)cc5)CC4)cc3F)ccnc2cc1OCCCN1CCOCC1 [Foretinib] (partner 0.25 µM)
4. C=C1C(=O)O[C@@H](CCCCCCCC)[C@@H]1C(=O)O [C-75] + CS(=O)(=O)N1CCN(Cc2cc3nc(-c4cccc5[nH]ncc45)nc(N4CCOCC4)c3s2)CC1 [Pictilisib] (partner 1 µM)

[0.679, 0.965, 1.16, 0.864]

---

Tested on: SK-LU-1
Assay method text: relative viability (nuclei count vs DMSO), 5 days (fraction); higher = more cells survive
Condition notes: first compound 0.03162 µM
// returns not met unless relative viability is strictly below 0.5, in which case met

Reference set (5 entries):
NC(=O)Nc1cc(-c2cccc(F)c2)sc1C(=O)N[C@H]1CCCNC1 [AZD7762] + Nc1nc2[nH]cc(CCc3ccc(C(=O)N[C@@H](CCC(=O)O)C(=O)O)cc3)c2c(=O)[nH]1 [Pemetrexed] (partner 0.2 µM)	not met
NC(=O)Nc1cc(-c2cccc(F)c2)sc1C(=O)N[C@H]1CCCNC1 [AZD7762] + Nc1ncn([C@H]2C[C@H](O)[C@@H](CO)O2)c(=O)n1 [Decitabine] (partner 2 µM)	not met
NC(=O)Nc1cc(-c2cccc(F)c2)sc1C(=O)N[C@H]1CCCNC1 [AZD7762] + CC(C)C[C@H](NC(=O)[C@H](Cc1ccccc1)NC(=O)c1cnccn1)B(O)O [Bortezomib] (partner 0.002 µM)	not met
NC(=O)Nc1cc(-c2cccc(F)c2)sc1C(=O)N[C@H]1CCCNC1 [AZD7762] + COc1cc2c(Oc3ccc(NC(=O)C4(C(=O)Nc5ccc(F)cc5)CC4)cc3F)ccnc2cc1OCCCN1CCOCC1 [Foretinib] (partner 0.25 µM)	not met
NC(=O)Nc1cc(-c2cccc(F)c2)sc1C(=O)N[C@H]1CCCNC1 [AZD7762] + Cc1cc(Nc2cc(N3CCN(C)CC3)nc(Sc3ccc(NC(=O)C4CC4)cc3)n2)n[nH]1 [Tozasertib] (partner 0.1 µM)	met

We now examine a further compound.
Say whether its relative viability is strictly beneath 0.5. Entry: NC(=O)Nc1cc(-c2cccc(F)c2)sc1C(=O)N[C@H]1CCCNC1 [AZD7762] + Cc1nc(Nc2ncc(C(=O)Nc3c(C)cccc3Cl)s2)cc(N2CCN(CCO)CC2)n1 [Dasatinib] (partner 0.075 µM)
met

---

System: NCI-H1666
Assay method text: relative viability (nuclei count vs DMSO), 5 days (fraction); higher = more cells survive
Condition notes: first compound 0.3162 µM
Could you please report measured relative viability for the items listed next?
One number for each entry.

# batch size: 6; output relative viability per entry
1. NC(=O)Nc1cc(-c2cccc(F)c2)sc1C(=O)N[C@H]1CCCNC1 [AZD7762] + CC(=O)c1c(C)c2cnc(Nc3ccc(N4CCNCC4)cn3)nc2n(C2CCCC2)c1=O [Palbociclib] (partner 0.5 µM)
2. NC(=O)Nc1cc(-c2cccc(F)c2)sc1C(=O)N[C@H]1CCCNC1 [AZD7762] + CCNC(=O)c1noc(-c2cc(C(C)C)c(O)cc2O)c1-c1ccc(CN2CCOCC2)cc1 [Luminespib] (partner 0.01 µM)
3. NC(=O)Nc1cc(-c2cccc(F)c2)sc1C(=O)N[C@H]1CCCNC1 [AZD7762] + CC(=O)Nc1cccc(-n2c(=O)n(C3CC3)c(=O)c3c(Nc4ccc(I)cc4F)n(C)c(=O)c(C)c32)c1 [Trametinib] (partner 0.02 µM)
4. NC(=O)Nc1cc(-c2cccc(F)c2)sc1C(=O)N[C@H]1CCCNC1 [AZD7762] + C[C@@H](Oc1cc(-c2cnn(C3CCNCC3)c2)cnc1N)c1c(Cl)ccc(F)c1Cl [Crizotinib] (partner 1 µM)
5. NC(=O)Nc1cc(-c2cccc(F)c2)sc1C(=O)N[C@H]1CCCNC1 [AZD7762] + COc1cc2c(Oc3ccc(NC(=O)C4(C(=O)Nc5ccc(F)cc5)CC4)cc3F)ccnc2cc1OCCCN1CCOCC1 [Foretinib] (partner 0.25 µM)
6. NC(=O)Nc1cc(-c2cccc(F)c2)sc1C(=O)N[C@H]1CCCNC1 [AZD7762] + CC(C)C[C@H](NC(=O)[C@H](Cc1ccccc1)NC(=O)c1cnccn1)B(O)O [Bortezomib] (partner 0.002 µM)

0.565
1.03
0.891
0.993
1.12
0.848

Which value of relative viability has been reported for NC(=O)Nc1cc(-c2cccc(F)c2)sc1C(=O)N[C@H]1CCCNC1 [AZD7762] + N=C(N)NC(=N)NCCc1ccccc1 [Phenformin] (partner 250 µM) in the records?
0.554
